Target: human P2X4 receptor (Homo sapiens (Human), UniProt Q99571)
Sequence (Q99571 whole entry): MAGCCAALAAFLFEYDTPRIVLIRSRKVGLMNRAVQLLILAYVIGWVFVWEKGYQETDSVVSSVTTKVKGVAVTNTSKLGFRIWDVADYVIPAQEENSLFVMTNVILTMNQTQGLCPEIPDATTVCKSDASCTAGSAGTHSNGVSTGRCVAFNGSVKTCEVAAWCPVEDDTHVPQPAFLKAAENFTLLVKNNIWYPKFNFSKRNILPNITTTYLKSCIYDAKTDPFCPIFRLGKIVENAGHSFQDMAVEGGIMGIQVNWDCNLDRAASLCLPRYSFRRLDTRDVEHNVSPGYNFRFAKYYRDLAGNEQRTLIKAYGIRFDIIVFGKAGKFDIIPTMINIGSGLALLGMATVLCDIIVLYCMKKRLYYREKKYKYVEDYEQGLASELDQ
Assay: P2X4 receptor antagonist activity (ATP-induced intracellular calcium, Fura-2 AM)
Details: 1321N1 cells stably expressing human P2X4 receptor; test substance 15 minutes before addition of ATP; Fura-2 AM F340/F380; read-out: Inhibitory activity IC50
pIC50: −log10 of the molar value.
Let's look at some compounds and their measured pIC50.
Assay endpoint: pIC50

Compound: O=C1CN=C(c2ccc(-n3nnnc3CCc3ccccc3)cc2)c2ccc3ccccc3c2N1
Recorded number: 6.20
//
Compound: COc1cccc(CCc2nccn2-c2ccc(N3C(=O)CC(=O)Nc4c3ccc3ccccc43)cc2)c1.Cl [Example 42, hydrochloride]
Recorded number: 7.04
//
Compound: O=C1CC(=O)N(c2ccc(-c3nccn3CCc3cccc(O)c3)cc2)c2ccc3ccccc3c2N1
Recorded number: 7.11

Data credit: patent US9873683B2
